Recorded values, source patent US8642774B2.

- Experimental system: human recombinant mGluR5 (Homo sapiens)
- Construct: expressed in transfected cells; host or cells: HEK 293 cell line, cultured with tetracycline, hygromycin and geneticin; tetracycline is withdrawn 3-7 days before the assay
- Sequence (P41594 21-1212): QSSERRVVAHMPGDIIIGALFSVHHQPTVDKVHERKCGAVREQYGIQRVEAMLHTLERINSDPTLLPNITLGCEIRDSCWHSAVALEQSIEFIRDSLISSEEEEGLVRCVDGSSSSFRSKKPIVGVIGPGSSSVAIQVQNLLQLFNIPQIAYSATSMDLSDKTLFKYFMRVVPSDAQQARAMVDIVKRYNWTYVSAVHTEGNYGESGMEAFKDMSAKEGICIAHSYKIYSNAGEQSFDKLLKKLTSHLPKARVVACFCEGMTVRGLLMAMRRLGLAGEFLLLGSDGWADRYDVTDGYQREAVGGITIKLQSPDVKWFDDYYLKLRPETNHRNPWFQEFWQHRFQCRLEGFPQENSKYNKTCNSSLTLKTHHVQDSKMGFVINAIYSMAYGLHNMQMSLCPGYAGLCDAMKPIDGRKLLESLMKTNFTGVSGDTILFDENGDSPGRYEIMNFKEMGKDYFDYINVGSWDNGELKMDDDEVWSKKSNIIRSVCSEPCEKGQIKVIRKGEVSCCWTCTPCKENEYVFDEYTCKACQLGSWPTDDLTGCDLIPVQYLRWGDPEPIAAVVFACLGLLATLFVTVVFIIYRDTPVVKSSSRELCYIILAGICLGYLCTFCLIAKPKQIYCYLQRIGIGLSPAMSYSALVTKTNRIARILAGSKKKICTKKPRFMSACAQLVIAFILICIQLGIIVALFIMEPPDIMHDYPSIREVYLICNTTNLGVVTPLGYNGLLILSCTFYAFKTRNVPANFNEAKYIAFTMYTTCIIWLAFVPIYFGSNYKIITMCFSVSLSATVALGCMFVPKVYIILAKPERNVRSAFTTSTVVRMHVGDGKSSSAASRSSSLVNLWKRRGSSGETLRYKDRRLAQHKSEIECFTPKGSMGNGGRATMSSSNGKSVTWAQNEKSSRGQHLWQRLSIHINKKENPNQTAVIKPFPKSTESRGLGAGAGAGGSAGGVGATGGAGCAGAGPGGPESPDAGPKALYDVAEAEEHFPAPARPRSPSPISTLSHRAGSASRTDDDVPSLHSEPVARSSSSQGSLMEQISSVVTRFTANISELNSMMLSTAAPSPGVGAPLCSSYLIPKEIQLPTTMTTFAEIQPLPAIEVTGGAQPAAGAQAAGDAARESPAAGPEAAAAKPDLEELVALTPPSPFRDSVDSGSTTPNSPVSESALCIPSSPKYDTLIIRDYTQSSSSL
- Test protocol: positive modulation of mGluR5, calcium based FLIPR assay
- Format: cell-based
- Test context: EC50 of the modulation; HEK 293 cell line expressing human recombinant mGluR5; peak height of Ca fluorescence signal after glutamate at approx. 5% basal stimulation; read-out: EC50
Known EC50 of a selection of molecules
Report the value in nM with no unit label.

Some entries whose results are on file:
Cc1nc2c(s1)CN(C(=O)Cn1nc(-c3ccc(F)c(C)c3)nc1C1CCCC1)C2 [Example 7.03.105.]    870
O=C(Cn1nc(-c2ccc(F)cc2)nc1-c1ccc(F)cc1)N1CCc2ncsc2CC1 [Example 7.06.01.]    1130
COc1ccc(-c2nc(-c3ccc(F)cc3)n(CC(=O)N3CCc4nc(C)sc4CC3)n2)cc1 [Example 7.03.056.]    63

Quick note, EC50 for O=C(Cn1nc(-c2ccc(F)cc2)nc1-c1ccc(F)cc1)N1CCc2nc(-c3ccccc3)ncc2C1 [Example 7.03.002.] landed at 708
